Biological target: T1, recombinant human IL-23 (hrIL-23), produced at Centocor (human, UniProt P29460 23-328)
T1 construct: p19-p40 heterodimer; also called rhIL-23; huIL-23
T1 sequence 1: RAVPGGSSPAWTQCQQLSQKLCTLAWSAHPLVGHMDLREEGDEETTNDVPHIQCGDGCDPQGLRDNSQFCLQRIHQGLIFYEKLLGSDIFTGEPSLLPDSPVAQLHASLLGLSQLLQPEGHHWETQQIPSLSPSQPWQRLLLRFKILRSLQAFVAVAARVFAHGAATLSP
T1 sequence 2: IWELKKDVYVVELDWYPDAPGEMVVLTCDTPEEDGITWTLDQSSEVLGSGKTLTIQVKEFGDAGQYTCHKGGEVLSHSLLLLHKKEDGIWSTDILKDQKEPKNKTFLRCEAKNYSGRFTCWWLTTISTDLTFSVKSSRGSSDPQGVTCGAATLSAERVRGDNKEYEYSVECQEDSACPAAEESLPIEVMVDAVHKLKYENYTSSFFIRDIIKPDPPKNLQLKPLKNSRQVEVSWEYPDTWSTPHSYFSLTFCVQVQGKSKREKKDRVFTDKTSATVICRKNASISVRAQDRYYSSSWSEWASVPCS
Experiment: hrIL-23/hIL-23R competition assay
In this section, each of the binders is paired with its reported IC50.

binder	IC50 [nM]
MOR04658 Fab (Fab, V domains shown, Fab) VH: QVQLVESGGGLVQPGGSLRLSCAASGFTFSSFGMSWVRQAPGKGLEWVSNISSSGSSTYYADSVKGRFTISRDNSKNTLYLQMNSLRAEDTAVYYCARYWGTPYLMQFDNWGQGTLVTVSS VL: DIALTQPASVSGSPGQSITISCTGTSSDVGGYNSVSWYQQHPGKAPKLMIYSVSSRPSGVSNRFSGSKSGNTASLTISGLQAEDEADYYCSSYDTNKPLVVFGGGTKLTVL	0.7
MOR04217 Fab (Fab, V domains shown, Fab) VH: QVQLVESGGGLVQPGGSLRLSCAASGFTFSSYWITWVRQAPGKGLEWVSYISSSGSSTYYADSVKGRFTISRDNSKNTLYLQMNSLRAEDTAVYYCARGTFWSFGNYFANWGQGTLVTVSS VL: DIVLTQSPATLSLSPGERATLSCRASQSIFYNLAWYQQKPGQAPRLLIYGASNRATGVPARFSGSGSGTDFTLTISSLEPEDFATYYCQQYSSEPVTFGQGTKVEIK	16
MOR04649 Fab (Fab, V domains shown, Fab) VH: QVQLVQSGAEVKKPGESLKISCKGSGYSFSNYWIGWVRQMPGKGLEWMGIIDPSNSYTNYSPSFQGQVTISADKSISTAYLQWSSLKASDTAMYYCARWYYKPFDVWGQGTLVTVSS VL: DIVLTQPPSVSGAPGQRVTISCTGSSSNIGSGYDVHWYQQLPGTAPKLLIYGNSKRPSGVPDRFSGSKSGTSASLAITGLQSEDEADYYCSSWTPSSVVFGGGTKLTVL	0.2
MOR04205 Fab (Fab, V domains shown, Fab) VH: QVQLVQSGAEVKKPGESLKISCKGSGYSFTNYWISWVRQAPGKGLEWMGWIRPGDSDTRYSPSFEGQVTISADKSISTAYLQWSSLKASDTAMYYCARHYYGMDYWGQGTLVTVSS VL: DIVLTQPPSVSGAPGQRVTISCSGSSSNIGSYYVNWYQQLPGTAPKLLIYGNTHRPSGVPDRFSGSKSGTSASLAITGLQSEDEADYYCQTYASLGPGEVFGGGTKLTVL	38
